Biological target: XIAP-BIR3 (Homo sapiens (Human))
Sequence (P98170 241-356): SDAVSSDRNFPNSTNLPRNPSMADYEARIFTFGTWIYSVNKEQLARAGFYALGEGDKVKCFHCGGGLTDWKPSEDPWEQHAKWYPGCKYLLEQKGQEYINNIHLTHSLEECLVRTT
Assay: BIR binding assay (FRET competition), XIAP BIR3
Settings: fold separation (FS) for XIAP
Observed property: XIAP BIR3 vs BIR2 separation window

Record excerpt, results attached:
- Compound: "C[C@@H]1CN(CC(=O)N2CC(C)(C)c3[nH]c(=O)c(Oc4ccc(Br)cc4)cc32)[C@@H](CN2CCO[C@H](C(=O)NCc3ccc(CNC(=O)[C@@H]4CN(C[C@H]5CN[C@H](C)CN5CC(=O)N5CC(C)(C)c6[nH]c(=O)c(Oc7ccc(Br)cc7)cc65)CCO4)cc3)C2)CN1 [Compound 183]"
  XIAP BIR3 vs BIR2 separation window: "+++ (10,000>FS>1,000)"
- Compound: "C[C@@H]1CN(CC(=O)N2CC(C)(C)c3[nH]c(=O)c(Cc4ccc(F)cc4)cc32)[C@@H](CN2CCO[C@H](C(=O)NCCCC(=O)N3CCN(C[C@H]4CN[C@H](C)CN4CC(=O)N4CC(C)(C)c5[nH]c(=O)c(Cc6ccc(F)cc6)cc54)[C@H](C)C3)C2)CN1 [Compound 160]"
  XIAP BIR3 vs BIR2 separation window: "++++ (FS>10,000)"
- Compound: "C[C@@H]1CN(CC(=O)N2CC(C)(C)c3[nH]c(=O)c(Cc4ccc(F)cc4)cc32)[C@@H](CN2CCO[C@H](C(=O)NCCCN3CCN(CCCNC(=O)[C@@H]4CN(C[C@H]5CN[C@H](C)CN5CC(=O)N5CC(C)(C)c6[nH]c(=O)c(Cc7ccc(F)cc7)cc65)CCO4)CC3)C2)CN1 [Example 123]"
  XIAP BIR3 vs BIR2 separation window: "++++ (FS>10,000)"
- Compound: "C[C@@H]1CN(CC(=O)N2CC(C)(C)c3[nH]c(=O)c(Cc4ccc(F)cc4)cc32)[C@@H](CN2CCO[C@H](C(=O)N(C)CCCCCCN(C)C(=O)[C@@H]3CN(C[C@H]4CN[C@H](C)CN4CC(=O)N4CC(C)(C)c5[nH]c(=O)c(Cc6ccc(F)cc6)cc54)CCO3)C2)CN1 [Example 124]"
  XIAP BIR3 vs BIR2 separation window: "++++ (FS>10,000)"

Ask: Fill in: XIAP BIR3 vs BIR2 separation window of C[C@@H]1CN(CC(=O)N2CC(C)(C)c3[nH]c(=O)c(Cc4ccc(F)cc4)cc32)[C@@H](CN2CCN(Cc3c(F)c(F)c(CN4CCN(C[C@H]5CN[C@H](C)CN5CC(=O)N5CC(C)(C)c6[nH]c(=O)c(Cc7ccc(F)cc7)cc65)[C@H](C)C4)c(F)c3F)C[C@H]2C)CN1 [Example 28] is ___
Reply: +++ (10,000>FS>1,000)

Ask: Quick one: C[C@@H]1CN(CC(=O)N2CC(C)(C)c3c2cc(Cc2ccc(F)cc2)c(=O)n3C)[C@@H](CN2CCO[C@H](COCc3ccc(COC[C@@H]4CN(C[C@H]5CN[C@H](C)CN5CC(=O)N5CC(C)(C)c6c5cc(Cc5ccc(F)cc5)c(=O)n6C)CCO4)cc3)C2)CN1 [Example 117]
Reply: ++++ (FS>10,000)

Ask: Quick one: C[C@@H]1CN(CC(=O)N2CC(C)(C)c3[nH]c(=O)c(Cc4ccc(F)cc4)cc32)[C@@H](CN2CCO[C@H](C(=O)NCCCCCNC(=O)[C@@H]3CN(C[C@H]4CN[C@H](C)CN4CC(=O)N4CC(C)(C)c5[nH]c(=O)c(Cc6ccc(F)cc6)cc54)CCO3)C2)CN1 [Compound 136]
Reply: ++++ (FS>10,000)

# credit: patent US20250326771A1
